Exercise: for every item that follows, state its recorded MIC.
Tested on: Klebsiella pneumoniae Strain ID 301899
Assay: Antimicrobial susceptibility testing, broth microdilution (CLSI)
Assay type: cell-based
Conditions: Strain ID 301899 KLEPNEP, Mueller-Hinton broth, read-out: minimum inhibition concentration (MIC)

Notebook: `CO/N=C(\C(=O)N[C@@H]1C(=O)N2C(C(=O)O)=C(COC(C)=O)CS[C@H]12)c1csc(N)n1` , MIC read as > 64 µg/mL

Notebook: `CC1(C)S[C@@H]2[C@H](NC(=O)[C@H](N)c3ccccc3)C(=O)N2[C@H]1C(=O)O` , MIC read as > 32 µg/mL

Notebook: `C[C@@H](O)[C@H]1C(=O)N2C(C(=O)O)=C(SCCN=CN)C[C@H]12` , MIC read as 4 µg/mL

Notebook: `CC(C)(O/N=C(\C(=O)N[C@@H]1C(=O)N2C(C(=O)[O-])=C(C[n+]3ccccc3)CS[C@H]12)c1csc(N)n1)C(=O)O` , MIC read as > 128 µg/mL

---

Test system: E. coli Strain ID 303365
Assay: Antimicrobial susceptibility testing, broth microdilution (CLSI)
Format: cell-based
Settings: Escherichia coli; Strain ID 303365 ESCCOL, ESBL positive; Mueller-Hinton broth; read-out: minimum inhibition concentration (MIC)
Exercise: for every item that follows, state its recorded MIC.

Notebook: `CC1(C)S[C@@H]2[C@H](NC(=O)[C@H](N)c3ccccc3)C(=O)N2[C@H]1C(=O)O` , MIC read as > 32 µg/mL

Notebook: `C[C@@H](O)[C@H]1C(=O)N2C(C(=O)O)=C(SCCN=CN)C[C@H]12` , MIC read as ≤ 2 µg/mL

Notebook: `CO/N=C(\C(=O)N[C@@H]1C(=O)N2C(C(=O)O)=C(COC(C)=O)CS[C@H]12)c1csc(N)n1` , MIC read as > 64 µg/mL

Notebook: `CC(C)(O/N=C(\C(=O)N[C@@H]1C(=O)N2C(C(=O)[O-])=C(C[n+]3ccccc3)CS[C@H]12)c1csc(N)n1)C(=O)O` , MIC read as > 128 µg/mL

---

System: Klebsiella pneumoniae Strain ID 301917 (KPC-2)
Test: Antimicrobial susceptibility testing, broth microdilution (CLSI)
Assay type: cell-based
Details: Strain ID 301917 KLEPNEP, KPC-2 positive control, ESBL positive, Mueller-Hinton broth, read-out: minimum inhibition concentration (MIC)
Exercise: for every item that follows, state its recorded MIC.
The answer is to be given in µg/mL; state only the numeric part.

Notebook: `CC(C)(O/N=C(\C(=O)N[C@@H]1C(=O)N2C(C(=O)[O-])=C(C[n+]3ccccc3)CS[C@H]12)c1csc(N)n1)C(=O)O` , MIC read as 4

Notebook: `C[C@@H](O)[C@H]1C(=O)N2C(C(=O)O)=C(SCCN=CN)C[C@H]12` , MIC read as 8

Notebook: `CO/N=C(\C(=O)N[C@@H]1C(=O)N2C(C(=O)O)=C(COC(C)=O)CS[C@H]12)c1csc(N)n1` , MIC read as 32

---

System: E. coli Strain ID 301892
Assay: Antimicrobial susceptibility testing, broth microdilution (CLSI)
Assay type: cell-based
Conditions: Escherichia coli; Strain ID 301892 ESCCOL, ESBL positive; Mueller-Hinton broth; read-out: minimum inhibition concentration (MIC)
attribute_measured: MIC (µg/mL)
The answer is to be given in µg/mL; state only the numeric part.

The reported E. coli Strain ID 301892 MIC of C[C@@H](O)[C@H]1C(=O)N2C(C(=O)O)=C(SCCN=CN)C[C@H]12 [IPM, Imipenem] is 4

The reported E. coli Strain ID 301892 MIC of CO/N=C(\C(=O)N[C@@H]1C(=O)N2C(C(=O)O)=C(COC(C)=O)CS[C@H]12)c1csc(N)n1 [CTX, Cefotaxime] is 32

The reported E. coli Strain ID 301892 MIC of CC(C)(O/N=C(\C(=O)N[C@@H]1C(=O)N2C(C(=O)[O-])=C(C[n+]3ccccc3)CS[C@H]12)c1csc(N)n1)C(=O)O [CAZ, Ceftazidime] is 64

---

Exercise: for every item that follows, state its recorded MIC.
Test system: Klebsiella oxytoca Strain ID 300967
Assay: Antimicrobial susceptibility testing, broth microdilution (CLSI)
Type: cell-based
Conditions: Strain ID 300967 KLEOXY, Mueller-Hinton broth, read-out: minimum inhibition concentration (MIC)

Notebook: C[C@@H](O)[C@H]1C(=O)N2C(C(=O)O)=C(SCCN=CN)C[C@H]12 [IPM, Imipenem] , MIC read as > 16 µg/mL

Notebook: CC1(C)S[C@@H]2[C@H](NC(=O)[C@H](N)c3ccccc3)C(=O)N2[C@H]1C(=O)O [Amp, Ampicillin] , MIC read as > 32 µg/mL

Notebook: CC(C)(O/N=C(\C(=O)N[C@@H]1C(=O)N2C(C(=O)[O-])=C(C[n+]3ccccc3)CS[C@H]12)c1csc(N)n1)C(=O)O [CAZ, Ceftazidime] , MIC read as 128 µg/mL

Notebook: CO/N=C(\C(=O)N[C@@H]1C(=O)N2C(C(=O)O)=C(COC(C)=O)CS[C@H]12)c1csc(N)n1 [CTX, Cefotaxime] , MIC read as > 64 µg/mL

---

Exercise: for every item that follows, state its recorded MIC.
System: Klebsiella pneumoniae Strain ID 301919
Assay: Antimicrobial susceptibility testing, broth microdilution (CLSI)
Format: cell-based
Settings: Strain ID 301919 KLEPNEP, ESBL positive, Mueller-Hinton broth, read-out: minimum inhibition concentration (MIC)
The answer is to be given in µg/mL; state only the numeric part.

The reported Klebsiella pneumoniae Strain ID 301919 MIC of `CO/N=C(\C(=O)N[C@@H]1C(=O)N2C(C(=O)O)=C(COC(C)=O)CS[C@H]12)c1csc(N)n1` is 16

The reported Klebsiella pneumoniae Strain ID 301919 MIC of `CC(C)(O/N=C(\C(=O)N[C@@H]1C(=O)N2C(C(=O)[O-])=C(C[n+]3ccccc3)CS[C@H]12)c1csc(N)n1)C(=O)O` is 32

---

Exercise: for every item that follows, state its recorded MIC.
Tested on: E. coli Strain ID 301918 (KPC-3)
Assay: Antimicrobial susceptibility testing, broth microdilution (CLSI)
Format: cell-based
Conditions: Escherichia coli; Strain ID 301918 ESCCOL, KPC-3 positive control; Mueller-Hinton broth; read-out: minimum inhibition concentration (MIC)

Notebook: `C[C@@H](O)[C@H]1C(=O)N2C(C(=O)O)=C(SCCN=CN)C[C@H]12` , MIC read as 16 µg/mL

Notebook: `CC(C)(O/N=C(\C(=O)N[C@@H]1C(=O)N2C(C(=O)[O-])=C(C[n+]3ccccc3)CS[C@H]12)c1csc(N)n1)C(=O)O` , MIC read as > 128 µg/mL

Notebook: `CO/N=C(\C(=O)N[C@@H]1C(=O)N2C(C(=O)O)=C(COC(C)=O)CS[C@H]12)c1csc(N)n1` , MIC read as > 64 µg/mL

Notebook: `CC1(C)S[C@@H]2[C@H](NC(=O)[C@H](N)c3ccccc3)C(=O)N2[C@H]1C(=O)O` , MIC read as > 32 µg/mL

---

System: E. coli Strain ID 303364
Test: Antimicrobial susceptibility testing, broth microdilution (CLSI)
Type: cell-based
Conditions: Escherichia coli; Strain ID 303364 ESCCOL; Mueller-Hinton broth; read-out: minimum inhibition concentration (MIC)
Exercise: for every item that follows, state its recorded MIC.
The answer is to be given in mg/L; state only the numeric part.

Notebook: `CO/N=C(\C(=O)N[C@@H]1C(=O)N2C(C(=O)O)=C(COC(C)=O)CS[C@H]12)c1csc(N)n1` , MIC read as 32

Notebook: `CC(C)(O/N=C(\C(=O)N[C@@H]1C(=O)N2C(C(=O)[O-])=C(C[n+]3ccccc3)CS[C@H]12)c1csc(N)n1)C(=O)O` , MIC read as 128

---

System: E. coli ATCC 25922 (Strain ID 300960)
Assay: Antimicrobial susceptibility testing, broth microdilution (CLSI)
Assay type: cell-based
Details: Escherichia coli, ATCC25922; Strain ID 300960 ESCCOL, wild-type negative control; Mueller-Hinton broth; read-out: minimum inhibition concentration (MIC)
attribute_measured: MIC

Notebook: `C[C@@H](O)[C@H]1C(=O)N2C(C(=O)O)=C(SCCN=CN)C[C@H]12` , MIC read as ≤ 0.25 µg/mL

Notebook: `CC(C)(O/N=C(\C(=O)N[C@@H]1C(=O)N2C(C(=O)[O-])=C(C[n+]3ccccc3)CS[C@H]12)c1csc(N)n1)C(=O)O` , MIC read as ≤ 0.5 µg/mL

Notebook: `CO/N=C(\C(=O)N[C@@H]1C(=O)N2C(C(=O)O)=C(COC(C)=O)CS[C@H]12)c1csc(N)n1` , MIC read as ≤ 0.25 µg/mL

Notebook: `CC1(C)S[C@@H]2[C@H](NC(=O)[C@H](N)c3ccccc3)C(=O)N2[C@H]1C(=O)O` , MIC read as ≤ 0.25 µg/mL

These data points were gathered from patent US9085806B2.
